From: paper PMC9407945

TARGET DESC: SARS-CoV-2 spike ectodomain (S-ecto), Wuhan-hu-1 strain, 2P (SARS-CoV-2, Wuhan-hu-1, UniProt P0DTC2, 2P mutation at residues 986 and 987 | 2P mutation at residues 986 and 987, biotin (NHS-sulfo-LC-Biotin, EZ-link biotinylation kit))
PROTOCOL: BLI
RECORDED CONDITIONS: both partners purified
Please respond with reported kon for every item in the list.
Don't forget the unit after the value.

kon recorded for this binder, SW186 (murine variable regions, murine-human chimeric) (Fab, V domains shown) VH: QVQLQQSGAELVKPGASVKISCKASGVAFSSYWMNWVKQRPGKGLEWIGQIYPGDGDTNYNGKFKGKATLTADKSSSTAYMQLSSLSSEDSAVYFCARGFIATVEETMDYWGQGTSVTVSS VL: DIQMTQTTSSLSASLGDRVTISCRASQDISNYLNWYQQKPDGTVKLLIYYTSRLHSGVPSRFSGSGSGTDYSLTISNLEQEDIATYFCQQSHTLPWTFGGGTKLEIK , is 117000 M⁻¹ s⁻¹

kon recorded for this binder, humanized SW186 H1L4 (antibody, V domains shown) VH: QVQLVQSGAEVKKPGSSVKVSCKASGVAFSSYWMNWVRQAPGQGLEWMGQIYPGDGDTNYNGKFKGRVTITADKSTSTAYMELSSLRSEDTAVYYCARGFIATVEETMDYWGQGTLVTVSS VL: DIQMTQSPSSLSASVGDRVTITCRASQDISNYLNWYQQKPGKTVKLLIYYTSRLHSGVPSRFSGSGSGTDYTLTISSLQPEDFATYFCQQSHTLPWTFGGGTKLEIK , is 103000 M⁻¹ s⁻¹

kon recorded for this binder, humanized SW186 H1L3 (antibody, V domains shown) VH: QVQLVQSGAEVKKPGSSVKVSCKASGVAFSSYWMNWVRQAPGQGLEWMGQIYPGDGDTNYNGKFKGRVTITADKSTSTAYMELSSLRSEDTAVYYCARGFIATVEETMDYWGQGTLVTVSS VL: DIQMTQSPSSLSASVGDRVTITCRASQDISNYLNWYQQKPGKAPKLLIYYTSRLHSGVPSRFSGSGSGTDYTLTISSLQPEDFATYFCQQSHTLPWTFGGGTKLEIK , is 137000 M⁻¹ s⁻¹

kon recorded for this binder, humanized SW186 H3L3 (antibody, V domains shown) VH: QVQLVQSGAEVKKPGSSVKVSCKASGVAFSSYWMNWVRQAPGQGLEWIGQIYPGDGDTNYNGKFKGRATITADKSTSTAYMELSSLRSEDTAVYFCARGFIATVEETMDYWGQGTLVTVSS VL: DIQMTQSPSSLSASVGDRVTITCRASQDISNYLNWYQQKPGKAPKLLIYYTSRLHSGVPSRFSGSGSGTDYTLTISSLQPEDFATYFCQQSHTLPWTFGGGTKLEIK , is 131000 M⁻¹ s⁻¹

kon recorded for this binder, humanized SW186 H4L2 (antibody, V domains shown) VH: QVQLVQSGAEVKKPGSSVKVSCKASGVAFSSYWMNWVKQAPGQGLEWIGQIYPGDGDTNYNGKFKGKATITADKSTSTAYMELSSLRSEDTAVYFCARGFIATVEETMDYWGQGTLVTVSS VL: DIQMTQSPSSLSASVGDRVTITCRASQDISNYLNWYQQKPGKAPKLLIYYTSRLHSGVPSRFSGSGSGTDFTLTISSLQPEDFATYFCQQSHTLPWTFGGGTKLEIK , is 163000 M⁻¹ s⁻¹
